target.or.system: CA-IX-His-ECD (his-V5 tagged version of the CA IX protein, extracellular domain) (human, UniProt Q16790 38-414)
assay.notes: ELISA on CA-IX-His-ECD
measure: OD (OD)
Please reply with the bare figure in OD and do not write the unit itself.

Solved entries (count: 2):
AB-MN-22.17 (antibody, human IgG2, V domains shown, also called AX014H22-17) VH: QVQLQESGPGLVKPSETLSLTCTVSGGSISSYYWSWIRQPPGKGLEWIGYIYYSGSTNYNPSLKSRVTISVDTSKNQFSLKLSSVTAADTAVYYCARRGYDILTGYDYFDYWGQGTLVTVSS VL: DIQMTQSPSSVSASVGDRVTITCRASQGISIWLTWYQQKPGKAPKLLIYAASSLQSGVPSRFSGSGSGTDFTLTISSLQPEDFATYYCQQANSFPITFGQGTRLEIK: 2.16
AB-MN-22.18 (antibody, human IgG2, V domains shown, also called AX014H22-18) VH: QVQLQESGPGLVKPSQTLSLTCTVSGGSISSGGYYWNWIRQHPGKGLEWIGYIYYSGSTYYNPSLKSRVTISVDTSKNQFSLKLSSVTAADTAVYYCARTYYDILTGYPDAFDIWGQGTMVTVSS VL: DIQMTQSPSSLSASVGDRVTITCRASQDIRNDLGWYQQKPGKAPKRLICAASSLQSGVPSSFSGSGSGTEFTLTISSLQPEDFATYYCLQHNSYPWTFGQGTKVEIK: 2.23

Query: Hello, please tell me recorded OD for this one: AB-MN-22.19 (antibody, human IgG2, V domains shown, also called AX014H22-19) VH: QVQLQESGPGLVKPSETLSLTCTVSGGSISFYYWNWIRQPAGKGLEWVGRIYTSGSTNYNPSLKSRVTMSVDTSKNQFSLKLSSVTAADTAVYYCARGGFLEWDYYYGMDVWGQGTTVTVSS VL: EIVLTQSPGTLSLSPGERATLSCRASQSVSVTYLAWYQQKPGQAPRLLIYGASSRATGIPDRFSGSGSGTDFTLTISRLEPEDFAVYYCQQYGSSVTFGGGTKVEIK
Reply: 2.12
